Biological target: human carbonic anhydrase II (hCA II) (Homo sapiens, UniProt P00918)

# molecule, Ki / nM
data = [
    ("CCCNCC(O)COc1ccccc1C(=O)CCc1ccccc1 (stereo not shown)", 2970),
]

---

Target: human carbonic anhydrase I (hCA I) (Homo sapiens, UniProt P00915)
Construct: from tissue
Sequence (P00915 whole entry): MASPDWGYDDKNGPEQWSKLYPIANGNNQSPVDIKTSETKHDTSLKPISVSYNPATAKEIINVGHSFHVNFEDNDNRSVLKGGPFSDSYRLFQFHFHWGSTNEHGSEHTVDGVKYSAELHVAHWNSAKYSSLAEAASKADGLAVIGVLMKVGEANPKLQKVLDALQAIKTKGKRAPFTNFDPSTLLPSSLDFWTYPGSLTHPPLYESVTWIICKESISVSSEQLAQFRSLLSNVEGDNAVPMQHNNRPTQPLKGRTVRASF
Assay: CO2 hydratase activity assay (Maren method), hCA I
Assay type: biochemical
Conditions: hydratase method; enzyme purified from human erythrocytes; read-out: IC50 (hydratase) hCA I
Counter-ions that a name gives are not always drawn.
Reported values of IC50 for individual entries

# compound, IC50, µM
rows = [
    ("OC(CNCC(O)C1CCc2cc(F)ccc2O1)C1CCc2cc(F)ccc2O1 (centres unmarked) [Nebivolol hydrochloride]", 73.7),
    ("COC(=O)C1=C(C)NC(C)=C(C(=O)OC(C)(C)CN(C)CCC(c2ccccc2)c2ccccc2)C1c1cccc([N+](=O)[O-])c1 (centres unmarked) [Lercanidipine hydrochloride]", 201),
    ("COc1ccc(-n2nc(C(N)=O)c3c2C(=O)N(c2ccc(N4CCCCC4=O)cc2)CC3)cc1 [Apixaban]", 88.4),
    ("CCCCc1oc2ccccc2c1C(=O)c1cc(I)c(OCCN(CC)CC)c(I)c1 [Amiodorane hydrochloride]", 389),
    ("CN1CCc2nc(C(=O)N[C@@H]3C[C@@H](C(=O)N(C)C)CC[C@@H]3NC(=O)C(=O)Nc3ccc(Cl)cn3)sc2C1 [Edoxaban]", 94),
    ("C[C@H]1O[C@@H](O[C@H]2[C@@H](O)C[C@H](O[C@H]3[C@@H](O)C[C@H](O[C@H]4CC[C@@]5(C)[C@H](CC[C@@H]6[C@@H]5C[C@@H](O)[C@]5(C)[C@@H](C7=CC(=O)OC7)CC[C@]65O)C4)O[C@@H]3C)O[C@@H]2C)C[C@H](O)[C@@H]1O [Digoxin]", 74.9),
    ("CC(=O)Oc1cc2c(s1)CCN(C(C(=O)C1CC1)c1ccccc1F)C2 (centres unmarked) [Prasugrel]", 155),
    ("COc1ccccc1OCC(O)CN1CCN(CC(=O)Nc2c(C)cccc2C)CC1 (centres unmarked) [Ranolazine]", 503),
    ("CCCNCC(O)COc1ccccc1C(=O)CCc1ccccc1 (centres unmarked) [Propafenone]", 228),
    ("C[C@H](CS)C(=O)N1CCC[C@H]1C(=O)O [Captopril]", 121),
    ("COCCc1ccc(OCC(O)CNC(C)C)cc1 (centres unmarked) [Metoprolol succinate]", 400),
    ("COc1cc2nc(N3CCN(C(=O)C4COc5ccccc5O4)CC3)nc(N)c2cc1OC (centres unmarked) [Doxazosin mesylate]", 228),
    ("O=C(NC[C@H]1CN(c2ccc(N3CCOCC3=O)cc2)C(=O)O1)c1ccc(Cl)s1 [Rivaroxaban]", 220),
    ("COc1ccccc1OCCNCC(O)COc1cccc2[nH]c3ccccc3c12 (centres unmarked) [Carvedilol]", 61.2),
    ("CCCSc1nc(N[C@@H]2C[C@H]2c2ccc(F)c(F)c2)c2nnn([C@@H]3C[C@H](OCCO)[C@@H](O)[C@H]3O)c2n1 [Ticagrelor]", 168),
    ("CCOC(=O)[C@H](CCc1ccccc1)N[C@@H](C)C(=O)N1[C@H](C(=O)O)C[C@@H]2CCC[C@@H]21 [Ramipril]", 281),
    ("COC(=O)[C@H](c1ccccc1Cl)N1CCc2sccc2C1 [Clopidogrel]", 250),
    ("CCOc1nc2cccc(C(=O)OC(C)OC(=O)OC3CCCCC3)c2n1Cc1ccc(-c2ccccc2-c2nnn[nH]2)cc1 (centres unmarked) [Candesartan cilexetil]", 185),
    ("CCCCCCOC(=O)NC(=N)c1ccc(NCc2nc3cc(C(=O)N(CCC(=O)OCC)c4ccccn4)ccc3n2C)cc1 [Dabigatran etexilate]", 113),
    ("CC(=O)Oc1ccccc1C(=O)O [Acetylsalicylic acid]", 252),
    ("CCCCC1=NC2(CCCC2)C(=O)N1Cc1ccc(-c2ccccc2-c2nnn[nH]2)cc1 [Irbesartan]", 235),
    ("COc1ccc(CN2CCNCC2)c(OC)c1OC [Trimetazidine dihydrochloride]", 196),
    ("CC(C)NCC(O)COc1cccc2ccccc12 (centres unmarked) [Propranolol]", 1.77),
    ("CC(C)NCC(O)COc1ccc(COCCOC(C)C)cc1 (centres unmarked) [Bisoprolol hemifumarate]", 107),
    ("CCOC(=O)C1=C(COCCN)NC(C)=C(C(=O)OC)C1c1ccccc1Cl (centres unmarked) [Amlodipine]", 133),
    ("COc1ccc([C@@H]2Sc3ccccc3N(CCN(C)C)C(=O)[C@@H]2OC(C)=O)cc1 [Diltiazem]", 624),
    ("CCOC(=O)C1=C(C)NC(C)=C(C(=O)OCC)C1c1ccccc1/C=C/C(=O)OC(C)(C)C [Lacidipine]", 696),
    ("CCN(CC)CC(=O)Nc1c(C)cccc1C [Lidocaine HCl]", 19.6),
    ("CC(C)c1c(C(=O)Nc2ccccc2)c(-c2ccccc2)c(-c2ccc(F)cc2)n1CC[C@@H](O)C[C@@H](O)CC(=O)O [Atorvastatin]", 243),
]

Source listed as paper PMC7717712.
